quantity.name: melting point

Worked cases, melting point given:
molecule: CCOC(CCNC(=O)CCC(=O)NCCC(OCC)OCC)OCC
quantity.name: melting point
observed.value: 89 to 90 °C
--
molecule: Cc1ccc(-n2nc3c4cc(/C=C/C(=O)OCc5ccccc5)ccc4[nH]c(=O)n3c2=O)cc1
quantity.name: melting point
observed.value: 242 °C

What does the data say about its melting point? Entry: O=S(=O)(Nc1ccc2c(OCc3ccc(I)cc3)cccc2c1)C(F)(F)F 120 to 122 °C

I am curious: what melting point value has been reported for CS(=O)(=O)Nc1cc(C=C2c3ccccc3CCc3ccccc32)ccc1O ? 123 °C

Give its melting point value. Item: Cc1ccc(S(=O)(=O)N2CCCC(CC(C#N)(c3ccc(F)cc3)c3ccc(F)cc3)C2)cc1 (stereo not drawn) 142 to 143 °C

Value lookup for melting point; key = NCc1ccc(N2CC(CN3CCC(CC(=O)O)CC3)OC2=O)cc1 (stereo not drawn) 135 °C

For Oc1cc2c(cc1O)OCC(c1cccc(F)c1)C2 (stereo not drawn) , what is its reported melting point? 121 to 123 °C

# lookup: melting point of COc1ccc(CN2C(=O)C(C)(c3cc(N(C)C(=O)C4CCCN4C(C)=O)ccc3Cl)c3cc(Cl)ccc32)c(OC)c1 (stereo not drawn) 74 °C
